Quick reference: sfGFP reporter fluorescence of the listed items.
B1: library; numbered along this chain (parent)
chain: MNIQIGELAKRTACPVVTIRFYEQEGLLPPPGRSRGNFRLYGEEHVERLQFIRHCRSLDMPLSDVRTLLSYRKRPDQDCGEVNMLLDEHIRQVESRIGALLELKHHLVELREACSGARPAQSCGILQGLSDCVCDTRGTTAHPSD

Variants of: B1
assayOverview: sfGFP reporter fluorescence (15 h) (µM FITC); higher = stronger transcriptional activation
conditionNotes: library round: Round 0; ligand: 1 µM Pb
Answer using only a numeral; do not append any unit.

Completed entries (count: 5):
mutantdesignation=L126F reportedmeasurement=0.0583
mutantdesignation=R39W reportedmeasurement=0.0599
mutantdesignation=L62W reportedmeasurement=0.0603
mutantdesignation=I3S reportedmeasurement=0.0605
mutantdesignation=L58T reportedmeasurement=0.0586

Note sfGFP reporter fluorescence for the variant shown: C114Y
0.0586

The measurements presented in this section are drawn from the supplement of paper PMC12783771.
